Target: human Farnesoid X Receptor (FXR) ligand binding domain (GST-FXR LBD) (Homo sapiens)
Experiment: Human GST-FXR LBD co-activator interaction assay (FXR HTRF assay)
Conditions: ligand-dependent interaction of GST-FXR LBD with biotin-labeled SRC-1 peptide, response relative to GW4064, read-out: FXR coactivator interaction assay (HTRF)
pEC50: −log10 of the molar value.
endpointName: pEC50

# compound, pEC50
measured = [
    ("Cn1nc(C(=O)N(CC(=O)NC2CC2)Cc2cccc(F)c2)c2c1-c1cc(Cl)ccc1OC2 [Compound 27]", 7.21),
    ("Cn1nc(C(=O)N(CC(=O)NCC2CCOC2)Cc2ccccc2F)c2c1-c1cc(Cl)ccc1OC2 (centres unmarked) [Compound 7]", 7.74),
    ("Cn1nc(C(=O)N(CC(=O)NC2CCC2)Cc2cccc(F)c2)c2c1-c1cc(Cl)ccc1OC2 [Compound 12]", 7.85),
    ("CC(C)C(=O)NCCN(Cc1ccccc1F)C(=O)c1nn(C)c2c1COc1ccc(Cl)cc1-2 [Compound 66]", 8.00),
    ("Cn1nc(C(=O)N(CC(=O)NCC2CC2)CC2CCCCC2)c2c1-c1cc(Cl)ccc1OC2 [Compound 74]", 7.02),
]

I = Cn1nc(C(=O)N(CC(=O)NCC(C)(C)O)Cc2ccccc2F)c2c1-c1cc(Cl)ccc1OC2 [Compound 46]
II = Cn1nc(C(=O)N(CC(=O)Nc2ccc(C(=O)N3CCOCC3)cc2)Cc2ccccc2F)c2c1-c1cc(Cl)ccc1OC2 [Compound 20]
Lookup: Look at I and II . Which one has the lower recorded pEC50 number? When you have decided, please share the label of that item.
Found: II

A = Cn1nc(C(=O)N(CC(=O)NCC2CC2)Cc2cccc(F)c2)c2c1-c1cc(Cl)ccc1OC2 [Compound 1]
B = CC(C)NC(=O)NCCN(Cc1ccccc1F)C(=O)c1nn(C)c2c1COc1ccc(Cl)cc1-2 [Compound 61]
Lookup: Hi team, can someone confirm which has the larger pEC50: A or B ? Thanks. When you have decided, please share the label of that item.
Found: A

P = Cn1nc(C(=O)N(CC(=O)NCC2CC2)Cc2ccccc2F)c2c1-c1cc(F)ccc1OC2 [Compound 65]
Q = Cn1nc(C(=O)N(CC(=O)NCC2CC2)Cc2nccs2)c2c1-c1cc(Cl)ccc1OC2 [Compound 81]
R = CC(C)S(=O)(=O)NCCN(Cc1ccccc1F)C(=O)c1nn(C)c2c1COc1ccc(Cl)cc1-2 [Compound 63]
Lookup: Order the records, beginning with the lowest pEC50 and ending with the highest. Answer by writing out the labels in the requested order.
Found: R, Q, P

P = CC(C)NC(=O)CN(Cc1ccccc1)C(=O)c1nn(C)c2c1COc1ccc(Br)cc1-2 [Compound 25]
Q = Cn1nc(C(=O)N(CC(=O)NCCF)Cc2cccc(F)c2)c2c1-c1cc(Cl)ccc1OC2 [Compound 9]
R = C[C@@H](C(=O)NCC1CC1)N(Cc1ccccc1F)C(=O)c1nn(C)c2c1COc1ccc(Cl)cc1-2 [Compound 80]
Lookup: Order the records, beginning with the lowest pEC50 and ending with the highest. Answer by writing out the labels in the requested order.
Found: R, P, Q
(R: 7.21, P: 7.49, Q: 8.52)

I = CC(C)NC(=O)CN(Cc1cccc(F)c1)C(=O)c1nn(C)c2c1COc1ccc(Br)cc1-2 [Compound 28]
II = Cn1nc(C(=O)N(CC(=O)NC(C)(C)c2ccccc2)Cc2ccccc2F)c2c1-c1cc(Cl)ccc1OC2 [Compound 43]
Lookup: Look at I and II . Which one has the lower recorded pEC50 number? When you have decided, please share the label of that item.
Found: II

====

Molecular target: human Farnesoid X Receptor (FXR) ligand binding domain (GST-FXR LBD) (Homo sapiens)
Sequence (Q96RI1 193-472 isoform Q96RI1-2): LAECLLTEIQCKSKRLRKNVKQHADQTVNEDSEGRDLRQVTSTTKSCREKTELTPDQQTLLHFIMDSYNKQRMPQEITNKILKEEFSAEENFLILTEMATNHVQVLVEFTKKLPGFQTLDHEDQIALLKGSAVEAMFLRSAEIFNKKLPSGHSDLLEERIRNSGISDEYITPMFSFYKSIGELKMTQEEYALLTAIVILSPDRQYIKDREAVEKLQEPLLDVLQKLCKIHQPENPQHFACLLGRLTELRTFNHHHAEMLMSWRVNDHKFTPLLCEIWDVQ
Assay: Human GST-FXR LBD co-activator interaction assay (FXR HTRF assay)
Settings: ligand-dependent interaction of GST-FXR LBD with biotin-labeled SRC-1 peptide, response relative to GW4064, read-out: FXR coactivator interaction assay (HTRF)
Method: Human GST-FXR LBD Co-Activator Interaction Assay The FXR HTRF assay is a biochemical assay measuring the interaction between FXR and a coactivator protein (SRC1). […] Recombinant human Farnesoid X Receptor (FXR) ligand binding domain (amino acids 193-472) fused to glutathione S-transferase (GST) purified protein (GST-FXR LBD) was purchased (Invitrogen). […] Plates are incubated at room temperature in the dark for 2.5 hrs before reading on an Envision (PerkinElmer) at 665 nm and 590 nm. […]
pEC50: −log10 of the molar value.
endpointName: pEC50

# count of solved cases: 2
# compound, studyTarget, pEC50
rows = [
    ("Cn1nc(C(=O)N(CC(=O)NCC2CC2)CC2CCCC2)c2c1-c1cc(Cl)ccc1OC2", "human Farnesoid X Receptor (FXR) ligand binding domain (GST-FXR LBD) (Homo sapiens)", 7.06),
    ("CC(C)NC(=O)CN(Cc1cc(F)cc(F)c1)C(=O)c1nn(C)c2c1COc1ccc(Cl)cc1-2", "human Farnesoid X Receptor (FXR) ligand binding domain (GST-FXR LBD) (Homo sapiens)", 7.11),
]

1 = Cn1nc(C(=O)N(CC(=O)NCCF)Cc2cccc(F)c2F)c2c1-c1cc(Cl)ccc1OC2
2 = Cn1nc(C(=O)N(CC(=O)NCC2CCCO2)Cc2ccccc2F)c2c1-c1cc(Cl)ccc1OC2 (stereo not shown)
Lookup: Look at 1 and 2 . Which one has the lower recorded pEC50 number? When you have decided, please share the label of that item.
Found: 2

Hey, just so you know, these numbers are from patent US10351576B2.
